# Test system: HL-60(TB) leukemia
# ASSAY_NAME: NCI-60 one-dose screen, 48 h (100 = growth as untreated, 0 = no growth, -100 = all killed)
# RECORDED_CONDITIONS: 10 µM unless noted
Compounds without any hit were thinned out: in the full panel of roughly 83,000, 20% have a hit.
Each entry gets f if its growth stays under 60%, and t if its growth is 60% or above.

The examples below pair each entry with its known result.
INSERT INTO assay_data (molecule, tgt, label_class) VALUES
  ('C=C(C)[C@@H]1CC[C@]2(CO)CC[C@]3(C)[C@H](CC[C@@H]4[C@@](C)(CCCN)[C@H](C(=C)C)CC[C@]43C)[C@@H]12', 'HL-60(TB) leukemia', 'f'),
  ('C=C[C@@H]1CCC/C=C/[C@@H]2C[C@H](O)C[C@H]2[C@H](O)/C=C/C(=O)O1', 'HL-60(TB) leukemia', 'f'),
  ('Nc1ncc(-c2ccc(C(F)(F)F)cc2)c(NC2CCCCCC2)n1', 'HL-60(TB) leukemia', 'f');

## Task Is reported growth greater than or equal to 60% here: Cn1ccnc1C(=O)/C=C/c1ccc(CC(=O)Nc2ccc(F)cc2)cc1
## Result f

## Task Determine whether this molecule has growth no lower than 60%: Nc1nc(Cl)cc(NCc2ccc(CNc3cc(Cl)nc(N)n3)cc2)n1
## Result t

## Task Would you say COc1ccccc1[C@H]1c2[nH]c3ccccc3c2C[C@H]2C(=O)N(CCCCCCC(=O)NO)CC(=O)N12 shows growth at minimum 60%?
## Result f

###

Listing of entries alongside the reported growth.
# Test system: SK-MEL-5 melanoma
# ASSAY_NAME: NCI-60 one-dose screen, 48 h (100 = growth as untreated, 0 = no growth, -100 = all killed)
# RECORDED_CONDITIONS: 10 µM unless noted
This is part of a sample that, as a whole, favours compounds with a hit. Of some 83,000 tested, about 20% had one in any assay.
The reply should contain only the number, in %.

INSERT INTO results (compound, measurement_type, result_unit, value_reported) VALUES
  ('NCCc1cc(O)c(O)cc1O', 'growth', '%', 98.5),
  ('Nc1ccc([N+](=O)[O-])c2c1Oc1ccccc1O2', 'growth', '%', 96.7),
  ('COc1cc[c]([Hg][Cl])cc1', 'growth', '%', 30.5),
  ('CCC[CH2][Sn]([CH2]CCC)([CH2]CCC)[O]C(=O)c1ccc(Cl)cc1Cl', 'growth', '%', -96.1),
  ('COc1cc2c(cc1OC)CN(C)C(C)C2 (stereo not given)', 'growth', '%', 101),
  ('CC(=O)O[C@H]1CCC2(C)C(=CCC3C2CCC2(C)/C(=N/OC(=O)c4ccc(N(CCCl)CCCl)cc4)CCC32)C1 (stereo not given in full)', 'growth', '%', 73.2);

## Task Item under review: c1cnc2c(c1)ccc1ncccc12 . Reported growth?
## Result 104

## Task Can you share its growth? I mean this compound: O=C1NC(=O)C(CN2C(=O)C3(c4ccccc42)[C@H](Cl)C(=O)N3c2ccccc2)C(=O)N1 (stereo not given in full)
## Result 78.6

## Task Please look up its growth: CC1(C)N=C(N)N=C(N)N1c1ccc(CCCCc2ccc(S(=O)(=O)F)cc2)cc1
## Result 19.3

## Task What measured growth goes with CC(=O)[O][Hg][c]1nc2c(c(=O)n(C)c(=O)n2C)n1C ?
## Result 90.8

## Task Given the compound O=C1NC(=S)NC(=O)C1=Cc1ccccc1 , what is its reported growth?
## Result 98.7
